Tested on: L1210 leukemia ip in BDF1 mice, survival T/C
ASSAY INFO: NCI In Vivo Anticancer Drug Screen. Data for tumor model L1210 Leukemia (intraperitoneal) in B6D2F1 (BDF1) mice
APPLIED CONDITIONS: endpoint: mean survival time; dose: 200.0 mg/kg/injection; schedule: Q01DX001 (ip); vehicle: carboxymethylcellulose (CMC); higher = longer survival
Inconclusive results and toxic doses are left out.
ENDPOINT LABEL: T/C

Sample answers from the record:
Prompt line: Lab note: need T/C for `O=C(O)/C=C/c1ccc(C(NC(=O)N2C(=O)C=CC2=O)NC(=O)N2C(=O)C=CC2=O)cc1` on L1210 leukemia ip in BDF1 mice, survival T/C, anyone have it?
Response line: 95 % of control

Prompt line: Lab note: need T/C for `CN1Cc2c(ccc3c2OCO3)[C@@H]2[C@H](O)Cc3cc4c(cc3[C@@H]21)OCO4` on L1210 leukemia ip in BDF1 mice, survival T/C, anyone have it?
Response line: 113 % of control

Prompt line: Lab note: need T/C for `Cn1c(=O)[nH]c(=O)c2[nH]c(CO)nc21` on L1210 leukemia ip in BDF1 mice, survival T/C, anyone have it?
Response line: 102 % of control

Prompt line: Lab note: need T/C for `O=C1C(=O)c2cc(Cl)ccc2-c2ccccc21` on L1210 leukemia ip in BDF1 mice, survival T/C, anyone have it?
Response line: 100 % of control

Prompt line: Lab note: need T/C for `NC(=S)N/N=C\c1ccccc1/C=N/NC(N)=S` on L1210 leukemia ip in BDF1 mice, survival T/C, anyone have it?
Response line: 98 % of control

More entries:
Prompt line: Lab note: need T/C for `CN(C)c1ncnc2[nH]cc([N+](=O)[O-])c12` on L1210 leukemia ip in BDF1 mice, survival T/C, anyone have it?
Response line: 93 % of control

Prompt line: Lab note: need T/C for `CC(C)=CCC/C(C)=C\C=N\O` on L1210 leukemia ip in BDF1 mice, survival T/C, anyone have it?
Response line: 95 % of control

Prompt line: Lab note: need T/C for c1ccc2c(c1)CCC1NC21 (configuration not stated) on L1210 leukemia ip in BDF1 mice, survival T/C, anyone have it?
Response line: 105 % of control

Prompt line: Lab note: need T/C for `COc1cc(NC(C)=O)c2ncccc2c1NC(C)=O` on L1210 leukemia ip in BDF1 mice, survival T/C, anyone have it?
Response line: 96 % of control

Prompt line: Lab note: need T/C for NCC1OC(n2cnc3c(N)ncnc32)C(O)C1O (configuration not stated) on L1210 leukemia ip in BDF1 mice, survival T/C, anyone have it?
Response line: 107 % of control

Prompt line: Lab note: need T/C for `CN(C)c1ccc2c(c1)/C(=N/O)c1ccccc1-2` on L1210 leukemia ip in BDF1 mice, survival T/C, anyone have it?
Response line: 105 % of control

Prompt line: Lab note: need T/C for `OCCCc1cc(Br)ccc1O` on L1210 leukemia ip in BDF1 mice, survival T/C, anyone have it?
Response line: 100 % of control
